meta.source: patent US10829499B2

# System: HIV-1 (NL4-3 strain)
# protocol notes: Assay for Inhibition of HIV Replication (kinetic assay, MT4-gag-GFP reporter cell line; VIKING)
# Type: cell-based
# condition context: MT4-GFP cells infected with HIV-1 NL4-3; 0% normal human serum (NHS); read-out: VIKING IP50 (nM) with 0% NHS

molecule: CCCN1C[C@H](C)N2C(=O)c3c(O)c(=O)c(C(=O)NCc4cccc(Cl)c4F)c4n3C(CC4)C12 (stereo partly shown)
IC50 [nM]: 6.36
//
molecule: C[C@H]1CN2C(=O)c3c(O)c(=O)c(C(=O)NCc4cccc(Cl)c4F)c4n3C(CC4)C2O1 (single isomer, unassigned) [Compound 45]
IC50 [nM]: 5.81
//
molecule: C[C@@H]1CN2C(=O)c3c(O)c(=O)c(C(=O)NCc4cccc(Cl)c4F)c4n3C(CC4)C2O1 (single isomer, unassigned) [Compound 41]
IC50 [nM]: 0.854
//
molecule: COC1CC2C3N(C)CCN3C(=O)c3c(O)c(=O)c(C(=O)NCc4ccc(F)cc4F)c1n32 (stereo not shown) [Compound 127]
IC50 [nM]: 1.2
